MIC values recorded for S. serevisiae
// units = µg/mL; emit number, no label

The following compounds have reported results that may help.
- O=C(O)c1ccc(O)c(C=NNc2ccccc2OC(F)(F)F)c1: 1
- Cc1cccc(NN=Cc2cc(C(=O)O)ccc2O)c1: 1
- COc1ccc(Br)c(C=NNc2nccnc2OC)c1O: 1
- COc1nccnc1N/N=C/c1cc(Cl)cc(Cl)c1O: 1
- CCOc1cccc(C=NNc2nccnc2OC)c1O: 1
- COc1cc(Br)cc(C=NNc2nccnc2OC)c1O: 0.5
- Oc1cc(OCc2ccccc2)ccc1/C=N/NC(=S)Nc1ccc(Cl)cc1: 0.5
- Oc1cc(OCc2ccccc2)ccc1/C=N/NC(=S)Nc1cccc(C(F)(F)F)c1: 0.25
- Oc1ccccc1/C=N/NC(=S)Nc1cccc(F)c1: 2
- O=C(O)c1ccc(O)c(C=NNc2cccc(F)c2)c1: 2

q: Using S. serevisiae as the test system, report measured MIC of COC(=O)c1ccc(COc2ccc(/C=N/NC(=S)Nc3cccc(C(F)(F)F)c3)c(O)c2)cc1 .
a: 0.5

* * *

Assay read-out MIC; system under study: A. Nidulans.

q: Provide MIC, system A. Nidulans, entry COc1nccnc1NN=Cc1ccccc1O [(4)]
a: 2 µg/mL

* * *

# System: A. Nidulans
Please assign Not met whenever MIC is at or above 1 µg/mL, and Met whenever it is below.

- Oc1c(Cl)cc(Cl)cc1/C=N/NC(=S)Nc1cc(C(F)(F)F)cc(C(F)(F)F)c1: Not met
- Cc1cccc(NN=Cc2cc(C(=O)O)ccc2O)c1: Met
- COc1nccnc1N/N=C/c1ccc2ccccc2n1: Not met
- Oc1cc(OCc2ccccc2)ccc1/C=N/NC(=S)Nc1cccc(C(F)(F)F)c1: Met
- O=C(O)c1ccc(COc2ccc(/C=N/NC(=S)Nc3ccc(Cl)cc3)c(O)c2)cc1: Met
- COC(=O)c1ccc(COc2ccc(/C=N/NC(=S)Nc3ccc(Cl)cc3)c(O)c2)cc1: Met

Now take the following compound into account.
q: Find out if reported MIC for COc1nccnc1NN=Cc1cccc(F)c1O is less than 1 µg/mL
a: Not met

* * *

# Tested on: S. serevisiae
Catalogue of compounds with associated MIC
Report the value in µg/mL with no unit label.

- CCN(CC)c1ccc(/C=N/NC(=S)Nc2cccc(C(F)(F)F)c2)c(O)c1 [(48)]: 0.5
- Oc1c(Cl)cc(Cl)cc1/C=N/NC(=S)Nc1cc(C(F)(F)F)cc(C(F)(F)F)c1 [(35)]: 2
- FC(F)(F)c1cc(NC(=S)N/N=C/c2ccccn2)cc(C(F)(F)F)c1 [(37)]: 1

Shifting focus to the compound that follows.
q: Using known records, supply MIC for COc1nccnc1NN=Cc1cccc([N+](=O)[O-])c1O [(12)]
a: 4

* * *

# Tested on: S. serevisiae
In this section we review reported MIC values for a set of compounds.
Answer in µg/mL, number only, no unit symbol.

Would you please look over these solved cases?
- O=C(O)c1ccc(O)c(C=NNc2ccccc2Br)c1: 2
- COc1nccnc1NN=Cc1cc(Cl)ccc1O: 1
- COC(=O)c1ccc(COc2ccc(/C=N/NC(=S)Nc3ccc(Cl)cc3)c(O)c2)cc1: 0.25
- O=C(O)c1ccc(O)c(C=NNc2ccccc2)c1: 1
- Oc1ccccc1C=NNc1ccccc1 [(19), 2-hydroxybenzaldehyde-N-phenyl hydrazone]: 1

We next turn to a different compound, shown below.
q: Determine its reported MIC: COc1nccnc1NN=Cc1cccc(F)c1O
a: 1
